# System: HeLa C3
# Measurement Protocol: Induction of apoptosis in human HeLaC3 cells assessed as reduction of yellow fluorescent protein/cyan fluorescent protein emission ratio below 3 at 20 uM after 24 hrs using fluorescent plate reader
# Assay type: functional, cell-based
Active and inactive are the calls of the source. The calls are words filed in the database; no cut-off is given here.
Pick from active, inactive when you respond.

Check the results log: what was the call for CC(C)=CCC/C(C)=C/C[C@@H]1C[C@]2(CC=C(C)C)C(=O)[C@@](CC=C(C)C)(C(=O)C(C(=O)c3ccc(O)c(O)c3)=C2O)[C@@]1(C)CCC=C(C)C ?
active

Repeat with COc1cc(O)c2c(=O)c3ccc(O)c(O)c3oc2c1CCC(C)(C)O
inactive

Repeat with CC(C)=CCC/C(C)=C/C[C@@H]1C[C@@]2(CC=C(C)C)C(=O)c3c(oc4cc(O)c(O)cc4c3=O)[C@](CC=C(C)C)(C2=O)C1(C)C
inactive

Repeat with COc1cc(O)c2c(=O)c3c(CC=C(C)C)cc(O)c(O)c3oc2c1C/C=C(\C)CCC=C(C)C
inactive

Repeat with CC(C)=CCC/C(C)=C/C[C@H]1C[C@]2(C/C=C(\C)CCC=C(C)C)C(=O)[C@@](CC=C(C)C)(C(=O)C(C(=O)c3ccc(O)c(O)c3)=C2O)C1(C)C
inactive

---

# Tested on: HeLa C3
# Measurement Protocol: Induction of apoptosis in human HeLaC3 cells assessed as reduction of yellow fluorescent protein/cyan fluorescent protein emission ratio below 3 at 20 uM after 24 hrs using fluorescent plate reader
# Format: functional, cell-based
Active and inactive are the calls of the source. No cut-off for these calls is given here.
Measured Parameter: Activity

In [3]: df
Out[3]:
                                     smiles       val
0  CC1(C)C=Cc2cc3c(=O)c4c(O)cc(O)cc4oc3c(O)c2O1  inactive
1  CC(C)=CCC/C(C)=C/C[C@H]1C[C@@]2(CC=C(C)C)C(=O)c3c(oc4cc(O)c(O)cc4c3=O)[C@](CC=C(C)C)(C2=O)C1(C)C  inactive
2  CC(C)=CCC/C(C)=C/C[C@@H]1C[C@]2(CC=C(C)C)C(=O)[C@@](CC=C(C)C)(C(=O)C(C(=O)c3ccc(O)c(O)c3)=C2O)C1(C)C  inactive
